Tested on: E. coli TOP10
Assay: microbe, parasite or virus in culture
Type: cell-based
Details: Escherichia coli, Table 3, read-out: MIC
property_name: MIC (µg/mL)
Quick note: give the figure in µg/mL, leave out the unit.

Worked cases, answers included:
>  <molecule>
CO[C@@]1(NC(=O)C(C(=O)O)c2ccsc2)C(=O)N2[C@@H](C(=O)O)C(C)(C)S[C@@H]21 (some centres unmarked) [TRM, temocillin]

>  <target_desc>
E. coli TOP10

>  <result_unit>
µg/mL

>  <MIC>
16

$$$$
>  <molecule>
C[C@@H](O)[C@H]1C(=O)N2C(C(=O)O)=C(S[C@@H]3CN[C@H](C(=O)N(C)C)C3)[C@H](C)[C@H]12 [MEM, meropenem]

>  <target_desc>
E. coli TOP10

>  <result_unit>
µg/mL

>  <MIC>
0.03

$$$$
>  <molecule>
C[C@@H](O)[C@H]1C(=O)N2C(C(=O)O)=C(S[C@@H]3CN[C@H](C(=O)Nc4cccc(C(=O)O)c4)C3)[C@H](C)[C@H]12 [ETP, ertapenem]

>  <target_desc>
E. coli TOP10

>  <result_unit>
µg/mL

>  <MIC>
0.015

$$$$
>  <molecule>
CO/N=C(\C(=O)N[C@@H]1C(=O)N2C(C(=O)O)=C(COC(C)=O)CS[C@H]12)c1csc(N)n1 [FOT, cefotaxime]

>  <target_desc>
E. coli TOP10

>  <result_unit>
µg/mL

>  <MIC>
0.12

$$$$
>  <molecule>
CO/N=C(\C(=O)N[C@@H]1C(=O)N2C(C(=O)O)=C(COC(N)=O)CS[C@H]12)c1ccco1 [CXM, cefuroxime]

>  <target_desc>
E. coli TOP10

>  <result_unit>
µg/mL

>  <MIC>
16

$$$$
>  <molecule>
CC(C)(O/N=C(\C(=O)N[C@@H]1C(=O)N2C(C(=O)[O-])=C(C[n+]3ccccc3)CS[C@H]12)c1csc(N)n1)C(=O)O [CAZ, ceftazidime]

>  <target_desc>
E. coli TOP10

>  <result_unit>
µg/mL

>  <MIC>
1

$$$$

*Q* Param readout= MIC; system= E. coli TOP10; entry= C[C@@H](O)[C@H]1C(=O)N2C(C(=O)O)=C(S[C@@H]3CN[C@H](CNS(N)(=O)=O)C3)[C@H](C)[C@H]12 [DOR, doripenem] ; returns value.
*A* 0.03

*Q* Try the molecule CO/N=C(\C(=O)N[C@@H]1C(=O)N2C(C(=O)[O-])=C(C[N+]3(C)CCCC3)CS[C@H]12)c1csc(N)n1 [FEP, cefepime]
*A* 0.06

====

Molecular target: OXA-48:P68A (Klebsiella pneumoniae, UniProt Q6XEC0, P68A)
Sequence (Q6XEC0 23-265 P68A): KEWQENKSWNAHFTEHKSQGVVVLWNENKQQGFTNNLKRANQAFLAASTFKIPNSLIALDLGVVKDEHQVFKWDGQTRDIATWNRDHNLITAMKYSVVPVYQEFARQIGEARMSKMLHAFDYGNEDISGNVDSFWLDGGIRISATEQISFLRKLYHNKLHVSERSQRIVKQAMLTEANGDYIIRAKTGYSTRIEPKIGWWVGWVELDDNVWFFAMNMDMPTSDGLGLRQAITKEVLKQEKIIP
Assay: Steady-state enzyme kinetics, OXA-48:P68A
Type: biochemical
Conditions: substrate hydrolysis; 25°C, pH 7.0; error = 95% CI
The reader will find reported Km values listed item by item below.
Write down the numeric answer in µM and omit the unit.

>  <compound>
CO/N=C(\C(=O)N[C@@H]1C(=O)N2C(C(=O)[O-])=C(C[N+]3(C)CCCC3)CS[C@H]12)c1csc(N)n1 [FEP, cefepime]

>  <result_unit>
µM

>  <Km>
462

$$$$
>  <compound>
C[C@@H](O)[C@H]1C(=O)N2C(C(=O)O)=C(SCCN=CN)C[C@H]12

>  <result_unit>
µM

>  <Km>
4.2

$$$$

*Q* Request body: readout Km, system OXA-48:P68A (Klebsiella pneumoniae, UniProt Q6XEC0, P68A), query "CC(C)(O/N=C(\C(=O)N[C@@H]1C(=O)N2C(C(=O)[O-])=C(C[n+]3ccccc3)CS[C@H]12)c1csc(N)n1)C(=O)O" . Return the value.
*A* 220

*Q* Moving on to "C[C@@H](O)[C@H]1C(=O)N2C(C(=O)O)=C(S[C@@H]3CN[C@H](C(=O)N(C)C)C3)[C@H](C)[C@H]12"
*A* 3
